EXPERIMENT: Peptide secondary structure (CD) and appearance (TEM) as a function of pH
Assay type: physicochemical
TEST_CONTEXT: CD spectra
Primed or numbered codes have the meaning given here. Ends that are not written are not given here. Baa″ = fullerene (C60, Bucky) amino acid derivative of phenylalanine
MEASURE: Secondary structure with decreasing pH

[
  {
    "SUBSTANCE": "Baa-Glu-Ile-Ala-Gln-Leu-Glu-Tyr-Glu-Ile-Ser-Gln-Leu-Glu-Gln-NH2 ({Baa″}-EIAQLEYEISQLEQ-NH2) [Peptide 22]",
    "MEASURE": "Secondary structure with decreasing pH",
    "RESULT": "random coil → α-helix"
  },
  {
    "SUBSTANCE": "Glu-Ile-Ala-Gln-Leu-Glu-Tyr-Glu-Ile-Ser-Gln-Leu-Glu-Gln-Gln-Glu-Ile-Gln-Ala-Leu-Glu-Ser-NH2 (EIAQLEYEISQLEQQEIQALES-NH2) [Peptide 3HP, parent model heptad peptide without Baa, reference compound]",
    "MEASURE": "Secondary structure with decreasing pH",
    "RESULT": "random coil → α-helix"
  }
]

* * *

EXPERIMENT: Peptide secondary structure (CD) and appearance (TEM) as a function of pH
Type: physicochemical
TEST_CONTEXT: TEM
Primed or numbered codes have the meaning given here. Ends that are not written are not given here. Baa″ = fullerene (C60, Bucky) amino acid derivative of phenylalanine
MEASURE: Appearance

[
  {
    "SUBSTANCE": "Glu-Ile-Ala-Gln-Leu-Glu-Tyr-Glu-Ile-Ser-Gln-Leu-Glu-Gln-Gln-Glu-Ile-Gln-Ala-Leu-Glu-Ser-NH2 (EIAQLEYEISQLEQQEIQALES-NH2) [Peptide 3HP, parent model heptad peptide without Baa, reference compound]",
    "MEASURE": "Appearance",
    "RESULT": "fibers"
  },
  {
    "SUBSTANCE": "Glu-Ile-Ala-Gln-Leu-Glu-Tyr-Glu-Ile-Ser-Gln-Leu-Glu-Gln-NH2 (EIAQLEYEISQLEQ-NH2) [Peptide 2HP, parent model heptad peptide without Baa, reference compound]",
    "MEASURE": "Appearance",
    "RESULT": "fibers"
  },
  {
    "SUBSTANCE": "Baa-Glu-Ile-Ala-Gln-Leu-Glu-Tyr-Glu-Ile-Ser-Gln-Leu-Glu-Gln-Glu-Ile-Gln-Ala-Leu-Glu-Ser-NH2 ({Baa″}-EIAQLEYEISQLEQEIQALES-NH2) [Peptide 23]",
    "MEASURE": "Appearance",
    "RESULT": "fibers"
  }
]
